Hi there, I'd appreciate the recorded pIC50 for every entry that follows.
target: GDP-loaded KRAS G12D (Homo sapiens, UniProt P01116, G12D); assay: KRAS G12D Probe Displacement Assay; assay type: binding; settings: KRAS G12D 0.5 nM, biotinylated probe 2 4 nM; Table 6 letters; read-out: KRAS G12D Probe Displacement Assay IC50 (class)
Sequence (P01116 1-188 isoform P01116-2 G12D): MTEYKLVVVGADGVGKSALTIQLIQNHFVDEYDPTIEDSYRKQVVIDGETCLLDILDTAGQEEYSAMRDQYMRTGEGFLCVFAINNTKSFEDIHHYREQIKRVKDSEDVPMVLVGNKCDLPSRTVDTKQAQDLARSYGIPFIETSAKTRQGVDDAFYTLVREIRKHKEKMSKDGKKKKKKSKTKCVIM
pIC50: −log10 of the molar value.

q: Look up pIC50: `CN1C[C@H](F)C[C@]1(C)COc1nc(N2C3CNCC2COC3)c2cc(C(F)(F)F)c(-c3ccc(F)c4sc(N)nc34)c(F)c2n1`
a: > 7.30

q: Look up pIC50: `CC(=O)N1CC(COc2nc(N3CC4CCC(C3)N4)c3cc(Cl)c(-c4nc(N)cc(C)c4C(F)(F)F)c(F)c3n2)C1`
a: > 7.30

q: Look up pIC50: `N#Cc1c(N)sc2c(F)ccc(-c3c(Cl)cc4c(N5CC6CCC(C5)N6)nc(OC[C@@]56CCCN5C[C@H](F)C6)nc4c3F)c12`
a: > 7.30

q: Look up pIC50: COC1CN2CC(F)CC2(COc2nc(N3C4CNCC3COC4)c3cc(F)c(-c4nc(N)cc(C)c4C(F)(F)F)c(F)c3n2)C1 (stereo not shown)
a: 6.00 to 7.00

q: Look up pIC50: N#CCCNC1C[C@H]2CC[C@@H]1N2c1nc(OC[C@@]23CCCN2C[C@H](F)C3)nc2c(F)c(-c3ccc(F)c4sc(N)nc34)c(C(F)(F)F)cc12 (stereo partly shown)
a: > 7.30

q: Look up pIC50: Cc1cc(N)nc(-c2c(Cl)cc3c(N4CC5CCC(C4)N5)nc(OCC4(C)CCOC4)nc3c2F)c1C(F)(F)F (stereo not shown)
a: 7.00 to 7.30

q: Look up pIC50: `Nc1nc2c(-c3c(C(F)(F)F)cc4c(N5CC6CCC(C5)N6)nc(OCC5(O)CCOCC5)nc4c3F)ccc(F)c2s1`
a: > 7.30

q: Look up pIC50: `N#CC1(COc2nc(N3CC4CCC(C3)N4)c3cc(C(F)(F)F)c(-c4ccc(F)c5sc(N)nc45)c(F)c3n2)CCC1`
a: > 7.30

q: Look up pIC50: COCC1CCC2(COc3nc(N4CC5CCC(C4)N5)c4cc(C(F)(F)F)c(-c5ccc(F)c6sc(N)nc56)c(F)c4n3)CCCN12 (stereo not shown)
a: > 7.30

q: Look up pIC50: `Cc1cc(N)nc(-c2c(Cl)cc3c(N4CC5CCC(C4)N5)nc(OCC4(C)CCOCC4)nc3c2F)c1C(F)(F)F`
a: 7.00 to 7.30

q: Look up pIC50: `Cc1cc(N)nc(-c2c(SC(F)(F)F)cc3c(N4CC5CCC(C4)N5)nc(OC[C@@]45CCCN4C[C@H](F)C5)nc3c2F)c1C(F)(F)F`
a: > 7.30

q: Look up pIC50: `Nc1nc2c(-c3c(C(F)(F)F)cc4c(N5CC6CCC(C5)N6)nc(OCC5(CO)CCCCC5)nc4c3F)ccc(F)c2s1`
a: > 7.30

q: Look up pIC50: Nc1nc2c(-c3c(C(F)(F)F)cc4c(N5CC6CCC(C5)N6)nc(OC5CCOC5)nc4c3F)ccc(F)c2s1 (stereo not shown)
a: > 7.30

q: Look up pIC50: `Nc1nc2c(-c3cc4nc(OC[C@@]56CCCN5C[C@H](F)C6)nc(N5CC6CCC(C5)N6)c4cc3C(F)(F)F)ccc(F)c2s1`
a: > 7.30

q: Look up pIC50: `Nc1nc2c(-c3c(C(F)(F)F)cc4c(N5CC6CCC(C5)N6)nc(OC[C@@H]5COCCO5)nc4c3F)ccc(F)c2s1`
a: > 7.30

q: Look up pIC50: `CC(F)(F)C1(COc2nc(N3CC4CCC(C3)N4)c3cc(C(F)(F)F)c(-c4ccc(F)c5sc(N)nc45)c(F)c3n2)COC1`
a: > 7.30

q: Look up pIC50: `F[C@H]1CN2CCC[C@@]2(COc2nc(N3CC4CCC(C3)N4)c3cc(Cl)c(-n4ncc5cccc(Cl)c54)cc3n2)C1`
a: < 6.00

q: Look up pIC50: `Cc1cc(N)nc(-c2c(Cl)cc3c(N4C5CCC4CNC5)nc(OC[C@@]45CCCN4C[C@H](F)C5)nc3c2F)c1C(F)(F)F`
a: > 7.30

q: Look up pIC50: `Nc1nc2c(-c3c(C(F)(F)F)cc4c(N5CC6CCC(C5)N6)nc(OCC5(CO)CC5)nc4c3F)ccc(F)c2s1`
a: > 7.30

q: Look up pIC50: `N#CC12CC(COc3nc(N4CC5CCC(C4)N5)c4cc(C(F)(F)F)c(-c5ccc(F)c6sc(N)nc56)c(F)c4n3)(C1)C2`
a: > 7.30

q: Look up pIC50: `Nc1nc2c(-c3c(C(F)(F)F)cc4c(N5CC6CCC(C5)N6)nc(OCC56CCC(CC5)OC6)nc4c3F)ccc(F)c2s1`
a: > 7.30

q: Look up pIC50: `Cc1cc(O)cc(-c2c(Cl)cc3c(N4CC5CCC(C4)N5)nc(OC[C@@]45CCCN4C[C@H](F)C5)nc3c2F)c1C(F)(F)F`
a: > 7.30

q: Look up pIC50: Cc1cc(N)nc(-c2c(Cl)cc3c(N4CC5CCC(C4)N5)nc(OCC4(C)CCC(=O)NC4)nc3c2F)c1C(F)(F)F (stereo not shown)
a: > 7.30

q: Look up pIC50: Nc1nc2c(-c3c(C(F)(F)F)cc4c(N5CC6CCC(C5)N6)nc(OC5CCOCC5F)nc4c3F)ccc(F)c2s1 (stereo not shown)
a: > 7.30

q: Look up pIC50: `Nc1nc2c(-c3c(C(F)(F)F)cc4c(N5CC6CCC(C5)N6)nc(OCCC5COC5)nc4c3F)ccc(F)c2s1`
a: > 7.30
